Origin of the recorded values: patent US20220041606A1

Reported values of EC50 for individual entries
Study system: human mAChR M1 (Homo sapiens)
Construct: host or cells: CHO-K1 cells (ATCC), stably transfected using Lipofectamine2000
Assay remarks: mAChR M1 cell-based functional assay (calcium mobilization), PAM activity: increase in the EC20 acetylcholine response
Measurement conditions: CHO-K1 cells expressing hM1; potentiation of EC20 acetylcholine response

{"columns": ["Query smiles", "EC50"],
 "data": [
  ["Cc1cn2c(=O)n(Cc3ccc(-c4cnn(C)c4)cc3F)cc(C(=O)N[C@H]3CCOC[C@@H]3O)c2n1", "7850 nM"],
  ["Cn1cc(-c2ccc(Cn3cc(C(=O)N[C@H]4CCOC[C@@H]4O)c4ncncc4c3=O)c(F)c2)cn1", "≥ 10000 nM"],
  ["Cn1cc2c(-c3cc(F)c(Cn4cc(C(=O)N[C@H]5CCCCC[C@@H]5O)c5nccn5c4=O)c(F)c3)cccc2n1", "470 nM"],
  ["Cn1ccc(-c2ccc(Cn3cc(C(=O)N[C@H]4CCCCC[C@@H]4O)c4ncn(C)c4c3=O)c(F)c2)n1", "310 nM"],
  ["Cn1cc(-c2ccc(Cn3cc(C(=O)N[C@H]4CCOC[C@@H]4O)c4ncccc4c3=O)cn2)cn1", "1370 nM"],
  ["Cn1cc2c(-c3cc(F)c(Cn4cc(C(=O)NC5CCOCC5)c5nccnc5c4=O)c(F)c3)cccc2n1", "5500 nM"],
  ["Cc1nc(-c2ccc(Cn3cc(C(=O)N[C@H]4CCOC[C@@H]4O)c4ncccc4c3=O)cc2)co1", "2490 nM"],
  ["Cn1cc(-c2ccc(Cn3cc(C(=O)N[C@H]4CCC[C@@H]4O)c4ncccc4c3=O)c(F)c2)cn1", "1290 nM"],
  ["Cn1cc(-c2ccc(Cn3cc(C(=O)N[C@H]4CCOC[C@@H]4O)c4ncccc4c3=O)c(F)c2)cn1", "220 nM"],
  ["O=C(N[C@H]1CCOC[C@@H]1O)c1cn(Cc2ccc(-n3cccn3)cc2)c(=O)n2ccnc12", "380 nM"],
  ["Cn1nccc1-c1ccc(Cn2cc(C(=O)N[C@H]3CCCC[C@@H]3O)c3nccn3c2=O)c(F)c1", "890 nM"],
  ["Cn1cc(-c2ccc(Cn3cc(C(=O)N[C@H]4CCOC[C@@H]4O)c4ncccc4c3=O)cc2)cn1", "370 nM"],
  ["Cn1ccc(-c2ccc(Cn3cc(C(=O)N[C@H]4CCCC[C@@H]4O)c4nccnc4c3=O)c(F)c2)n1", "7900 nM"],
  ["CC(C)[C@@H](CO)NC(=O)c1cn(Cc2ccc(-c3cnn(C)c3)cc2F)c(=O)c2nccnc12", "≥ 10000 nM"],
  ["Cn1cc(-c2ccc(Cn3cc(C(=O)N[C@H]4CCCC[C@@H]4O)c4nccn4c3=O)c(F)c2)cn1", "37 nM"]
]}

----------
Study system: human mAChR M1 (Homo sapiens, UniProt P11229)
Construct: host or cells: CHO-K1 cells (ATCC), stably transfected using Lipofectamine2000
Sequence (P11229 1-460): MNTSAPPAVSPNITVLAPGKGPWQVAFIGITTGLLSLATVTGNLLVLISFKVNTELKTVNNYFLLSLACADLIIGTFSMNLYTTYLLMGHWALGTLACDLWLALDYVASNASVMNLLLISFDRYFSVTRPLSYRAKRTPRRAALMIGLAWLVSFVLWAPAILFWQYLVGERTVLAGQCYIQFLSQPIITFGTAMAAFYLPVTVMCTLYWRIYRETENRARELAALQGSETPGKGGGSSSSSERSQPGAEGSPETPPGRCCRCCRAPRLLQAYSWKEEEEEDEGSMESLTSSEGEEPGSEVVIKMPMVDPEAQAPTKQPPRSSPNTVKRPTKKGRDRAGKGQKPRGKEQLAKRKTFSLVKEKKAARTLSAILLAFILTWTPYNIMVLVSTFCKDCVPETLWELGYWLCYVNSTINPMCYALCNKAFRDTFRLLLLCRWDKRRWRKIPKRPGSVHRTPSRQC
Assay remarks: mAChR M1 cell-based functional assay (calcium mobilization), PAM activity: increase in the EC20 acetylcholine response
Measurement conditions: CHO-K1 cells expressing hM1; potentiation of EC20 acetylcholine response
Procedure: Chinese hamster ovary (CHO-K1) cells stably expressing rat (r)M1 were purchased from the American Type Culture Collection and cultured according to their indicated protocol. […] Calcium flux was measured using the Functional Drug Screening System (FDSS) 6000 (Hamamatsu Corporation, Tokyo, Japan) as an increase in the fluorescent static ratio. […] Agonist activity was analyzed as a concentration-dependent increase in calcium mobilization upon compound addition. […]
Metric: EC50 (µM)

{"columns": ["Molecule", "Study system", "Operator", "Measured value"],
 "data": [
  ["Cn1ccc(-c2ccc(Cn3cc(C(=O)N[C@H]4CCCCC[C@@H]4O)c4sccc4c3=O)c(F)c2)n1 [Compound D28]", "human mAChR M1 (Homo sapiens, UniProt P11229)", ">", 10],
  ["O=C(N[C@H]1CCOC[C@@H]1O)c1cn(Cc2c(F)cc(-c3cncs3)cc2F)c(=O)c2cccnc12 [Compound A49]", "human mAChR M1 (Homo sapiens, UniProt P11229)", "=", 0.98],
  ["Cn1cc2c(-c3cc(F)c(Cn4cc(C(=O)N[C@H]5CCCC[C@@H]5O)c5sccc5c4=O)c(F)c3)cccc2n1 [Compound D31]", "human mAChR M1 (Homo sapiens, UniProt P11229)", "=", 7.98],
  ["Cc1cc(-c2cc(F)c(Cn3cc(C(=O)N[C@H]4CCOC[C@@H]4O)c4ncccc4c3=O)c(F)c2)ccn1 [Compound A36]", "human mAChR M1 (Homo sapiens, UniProt P11229)", "=", 0.61],
  ["Cn1nccc1-c1ccc(Cn2cc(C(=O)N[C@H]3CCC[C@@H]3O)c3nccn3c2=O)c(F)c1 [Compound B33]", "human mAChR M1 (Homo sapiens, UniProt P11229)", "=", 2.23],
  ["Cn1cc(-c2ccc(Cn3cc(C(=O)N[C@H]4CCCC[C@@H]4O)c4ncncc4c3=O)c(F)c2)cn1 [Compound A89]", "human mAChR M1 (Homo sapiens, UniProt P11229)", "≥", 10],
  ["Cn1cc(-c2ccc(Cn3cc(C(=O)NC4CC5(COC5)C4)c4nccn4c3=O)c(F)c2)cn1 [Compound B9]", "human mAChR M1 (Homo sapiens, UniProt P11229)", "=", 2.06]
]}
